Record form. Attribute: fold reduction in affinity against wild type. Fill in for each entry.
Target: T1, fluorescently labeled phosphopeptide VNKpSYFND-fluorescein
T1 peptide: VNK[pS]YFND-fluorescein
Experiment: fluorescence polarisation
Square brackets hold non-standard residues; d marks the D form. Ends that are not written are not given here. pS = N[C@@H](COP(=O)(O)O)C(=O)O

BRCA1 BRCT V1808A (domain or fragment, UniProt P38398 1646-1863, looked up) VNKRMSMVVSGLTPEEFMLVYKFARKHHITLTNLITEETTHVVMKTDAEFVCERTLKYFLGIAGGKWVVSYFWVTQSIKERKMLNEHDFEVRGDVVNGRNHQGPKRARESQDRKIFRGLEICCYGPFTNMPTDQLEWMVQLCGASVVKELSSFTLGTGVHPIAVVQPDAWTEDNGFHAIGQMCEAPVVTREWVLDSVALYQCQELDTYLIPQIPHSHY; ≤ 1.5 fold
BRCA1 BRCT D1692N (domain or fragment, UniProt P38398 1646-1863, looked up) VNKRMSMVVSGLTPEEFMLVYKFARKHHITLTNLITEETTHVVMKTNAEFVCERTLKYFLGIAGGKWVVSYFWVTQSIKERKMLNEHDFEVRGDVVNGRNHQGPKRARESQDRKIFRGLEICCYGPFTNMPTDQLEWMVQLCGASVVKELSSFTLGTGVHPIVVVQPDAWTEDNGFHAIGQMCEAPVVTREWVLDSVALYQCQELDTYLIPQIPHSHY; ~1.4 fold

Now consider a different binder.
Request: Endpoint output: fold reduction in affinity against wild type of BRCA1 BRCT R1699Q (domain or fragment, UniProt P38398 1646-1863, looked up) VNKRMSMVVSGLTPEEFMLVYKFARKHHITLTNLITEETTHVVMKTDAEFVCEQTLKYFLGIAGGKWVVSYFWVTQSIKERKMLNEHDFEVRGDVVNGRNHQGPKRARESQDRKIFRGLEICCYGPFTNMPTDQLEWMVQLCGASVVKELSSFTLGTGVHPIVVVQPDAWTEDNGFHAIGQMCEAPVVTREWVLDSVALYQCQELDTYLIPQIPHSHY . Value?
Result: ~100 fold

Numbers sourced from paper PMC2888420.
